Where do these numbers come from? They come from BigSolDB 2.1.

details: in n-hexane, 308.15 K
measurement.name: solubility (mole fraction)
Enter a number only.

Problem: I am curious: what solubility (mole fraction) value has been reported for C=C1C[C@]23C[C@@]1(O)CC[C@H]2[C@@]12C=C[C@H](O)[C@@](C)(C(=O)O1)[C@H]2[C@@H]3C(=O)O ?
Result: 0.000444

---

conditions: in isopropanol, 318.15 K
measurement.name: solubility (mole fraction)
Please give the numeric answer without any surrounding text.

Problem: Returns the measured solubility (mole fraction) for the input compound. Input: C=C1C[C@]23C[C@@]1(O)CC[C@H]2[C@@]12C=C[C@H](O)[C@@](C)(C(=O)O1)[C@H]2[C@@H]3C(=O)O
Result: 0.00103
